Data origin: patent US9434684B2

Entries and their melting point values follow.

The examples below pair each entry with its known result.
melting point for `CO/N=C(/CNC(=O)c1ccccc1C(F)(F)F)c1ncc(Br)cc1Cl` ?
85 to 86 °C

Now consider `CO/N=C(\CNC(=O)c1ccccc1C(F)(F)F)c1ccc(Cl)cc1Cl` .
146 to 148 °C

Now consider `O=C(NC/C(=N/OCC(F)(F)F)c1ncc(Cl)cc1Cl)c1ccccc1C(F)(F)F` .
100 to 102 °C

Further cases:
melting point for CO/N=C(\c1ncc(Cl)cc1Cl)C(C)NC(=O)c1ccccc1C(F)(F)F (stereo not drawn) ?
104 to 105 °C

Now consider `CON=C(CN(C(=O)c1c(C(F)(F)F)nn(C)c1F)C1CC1)c1ncc(Cl)cc1Cl` .
95 to 97 °C

Now consider `CCCO/N=C(/CNC(=O)c1ccccc1C(F)(F)F)c1ncc(Cl)cc1Cl` .
80 to 83 °C

Now consider `CC(C)O/N=C(/CNC(=O)c1ccccc1C(F)(F)F)c1ncc(Cl)cc1Cl` .
107 to 108 °C

Now consider `CCO/N=C(/CNC(=O)c1ccccc1C(F)(F)F)c1ncc(Cl)cc1Cl` .
84 to 86 °C

Now consider CCC(C)O/N=C(/CNC(=O)c1ccccc1C(F)(F)F)c1ncc(Cl)cc1Cl (stereo not drawn) .
68 to 70 °C
